Test: Selectivity index, ratio of HC50 for hemolytic activity in human RBC to MIC for antibacterial activity against methicillin-resistant Staphylococcus aureus R3890
Assay type: toxicity
Details: human red blood cells (erythrocytes), read-out: Selectivity Index
endpointLabel: selectivity ratio
Give bare numbers.

query: What does the record list as selectivity ratio for `CCCCNc1nc(NCCCC)nc(N2CC3CC(C2)CN(c2nc(NCCCC)nc(NCCCC)n2)C3)n1` ?
result: 800
